Data origin: patent US20260250371A1

Quick reference for KD ratio (variant antibody KD/burosumab KD) among some binders
ASSAYED_SYSTEM: T1, recombinant human FGF23 (R179Q) (human, UniProt Q9GZV9 25-251)
T1 construct: also called rhFGF23(R179Q); hFGF23(R179Q)
T1 sequence (looked up): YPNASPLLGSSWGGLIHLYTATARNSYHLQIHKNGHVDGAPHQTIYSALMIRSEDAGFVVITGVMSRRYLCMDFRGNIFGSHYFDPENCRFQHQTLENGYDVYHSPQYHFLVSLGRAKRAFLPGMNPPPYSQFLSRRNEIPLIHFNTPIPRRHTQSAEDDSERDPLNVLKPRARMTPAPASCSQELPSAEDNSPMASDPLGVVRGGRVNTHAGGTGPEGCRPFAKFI
PROTOCOL: SPR, antibody captured on hIgG chip, human FGF23 analyte

Worked set:
>>> value_measured("UGX205 (antibody, human IgG1, kappa, V domains shown, also called HC:S59E, LC:Y94D; S59E/Y94D) VH: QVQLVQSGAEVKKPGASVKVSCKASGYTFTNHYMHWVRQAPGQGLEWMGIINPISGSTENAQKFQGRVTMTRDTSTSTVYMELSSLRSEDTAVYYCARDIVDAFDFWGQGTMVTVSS VL: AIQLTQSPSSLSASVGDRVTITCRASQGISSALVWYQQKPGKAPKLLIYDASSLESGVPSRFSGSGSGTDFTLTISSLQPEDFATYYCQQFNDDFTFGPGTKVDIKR")
5
>>> value_measured("UGX157 (antibody, human IgG1, kappa, V domains shown, also called HC:I54Y; I54Y) VH: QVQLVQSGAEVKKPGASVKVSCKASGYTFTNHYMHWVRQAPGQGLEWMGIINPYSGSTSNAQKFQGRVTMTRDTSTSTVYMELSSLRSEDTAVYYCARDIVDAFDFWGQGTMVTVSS VL: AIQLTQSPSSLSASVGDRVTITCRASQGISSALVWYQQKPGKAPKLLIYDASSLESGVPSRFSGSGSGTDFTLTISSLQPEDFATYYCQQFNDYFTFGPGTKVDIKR")
3

For the next question, use this binder.
Specify measured KD ratio (variant antibody KD/burosumab KD) for UGX202 (antibody, human IgG1, kappa, V domains shown, also called HC:S59E, LC:N92Y; S59E/N92Y) VH: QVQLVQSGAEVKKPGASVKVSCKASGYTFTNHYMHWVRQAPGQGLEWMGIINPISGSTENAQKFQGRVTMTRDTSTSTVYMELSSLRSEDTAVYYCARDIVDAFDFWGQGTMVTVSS VL: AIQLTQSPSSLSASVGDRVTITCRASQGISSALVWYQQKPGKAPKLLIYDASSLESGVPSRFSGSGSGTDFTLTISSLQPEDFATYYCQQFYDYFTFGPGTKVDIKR .
3
